target: IRF5 (222-467, S430D) (Homo sapiens, UniProt Q13568, S440D); construct: 250 nM His tag IRF5(222-467, S430D); 100 nM biotin tag IRF5(222-467, S430D); test: FRET IRF5 dimerization inhibition assay (TR-FRET), S430D construct; format: binding
Sequence (Q13568 232-477 S440D): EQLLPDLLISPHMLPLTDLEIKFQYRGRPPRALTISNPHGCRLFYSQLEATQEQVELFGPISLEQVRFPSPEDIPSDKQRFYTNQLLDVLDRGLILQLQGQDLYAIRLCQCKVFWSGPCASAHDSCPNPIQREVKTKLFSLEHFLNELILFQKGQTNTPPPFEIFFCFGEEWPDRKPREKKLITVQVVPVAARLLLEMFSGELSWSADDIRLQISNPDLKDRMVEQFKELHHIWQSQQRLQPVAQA
pIC50: −log10 of the molar value.
Quantity: pIC50

**Q:** Indicate the recorded pIC50 value for this substance: Ac-YLKFIPLKRAIWLIK-NH2 [SEQ ID NO 23, Ac-YLKFIPLKRAIWLIK-NH2, reference compound]
**A:** < 4.12

---

biological target: Wild type IRF5 (222-467) (Homo sapiens, UniProt Q13568); construct: S430D phosphomimetic construct of IRF5 (222-467) as well as WT (222-467); assay: FRET IRF5 dimerization inhibition assay (TR-FRET), WT construct; assay type: binding; settings: Table 2; WT IRF5 (222-467); read-out: WT IC50
Sequence (Q13568 232-477): as the sequence (Q13568 232-477 S440D) above, with D209S counted along it
Quantity: pIC50
// field semantics: pIC50 = negative decimal log of concentration (mol/L)

Sample records with pIC50:
Substance | Quantity | Recorded number
Ac-IRLQISNPDLKDLMVQWFKDGGPSSGAPPPS-NH2 [SEQ ID NO 9] | pIC50 | 5.85
Ac-KDLMVQWFKDGGPSSGAPPPS-NH2 [SEQ ID NO 8] | pIC50 | 6.10

Okay, next one:
**Q:** Supply pIC50 value. Item: Ac-PFPPLPIGEEAPKDDMVRFFKDLHQYLNVV-NH2 [SEQ ID NO 10]
**A:** 6.46

---

molecular target: Wild type IRF5 (222-467) (Homo sapiens); construct: S430D phosphomimetic construct of IRF5 (222-467) as well as WT (222-467); assay: FRET IRF5 dimerization inhibition assay (TR-FRET), WT construct; type: binding
pIC50: −log10 of the molar value.
Quantity: pIC50

**Q:** Output pIC50 of Ac-YLKFIPLKRAIWLIK-NH2 [SEQ ID NO 23, Ac-YLKFIPLKRAIWLIK-NH2, reference compound]
**A:** < 4.12

---

molecular target: IRF5 (222-467, S430D) (Homo sapiens, UniProt Q13568, S440D); construct: 250 nM His tag IRF5(222-467, S430D); 100 nM biotin tag IRF5(222-467, S430D); assay: FRET IRF5 dimerization inhibition assay (TR-FRET), S430D construct; format: binding; conditions: Table 2; S430D phosphomimetic construct of IRF5 (222-467); read-out: S430D IC50
Quantity: pIC50
Notebook: values listed as pIC50 are -log10 of the concentration (mol/L).

**Q:** State, in one line, measured pIC50 of Ac-KDLMVQWFKDGGPSSGAPPPS-NH2 [SEQ ID NO 8]
**A:** 5.77
